assay: chemical genetic growth profiling, strain panel (AID 1159580);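 note: tested at 20 µM; growth read once vehicle control cultures reached saturation at 30 °C; 1 = growth at the plate median or of vehicle wells; lower values mean less growth of the strain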; conditions: S. cerevisiae deletion strains, growth OD, locus YLL026W, active compounds read low
Out of some 5,500 compounds screened, about 2,000 (36%) were called active. Roughly 18% stayed inconclusive and do not appear here. The list shows a part of the results.
measurement kind: normalized growth
Numbers only.

Use these answered entries as a reference point.
C=CCC1(C(C)CCC)C(=O)N=C(S)NC1=O (stereo unspecified)	0.994
CCN(CC)CCOc1ccc2c(c1)C(=O)c1cc(OCCN(CC)CC)ccc1-2	0.992
CC(=O)Nc1ccc(S(=O)(=O)c2ccc(NC(C)=O)cc2)cc1	1.01
COc1cc(OC)c2c(=O)c(-c3ccccc3)c(C)oc2c1OC	0.984
CC(=O)NCCCS(=O)(=O)O	1.02

// batch mode: one normalized growth value per listed entry
1. CC(=O)NCCCCCC(=O)O
2. CC(C)(C)NC[C@@H](O)COc1nsnc1N1CCOCC1
3. CCCC(C)C1(CC)C(=O)N=C(S)NC1=O (stereo unspecified)
4. C[C@H](N)[C@H](O)c1ccc(O)c(O)c1
5. CN(C)CCOC(C)(c1ccccc1)c1ccccn1 (stereo unspecified)
6. COC(C)(C)CCC[C@H](C)C/C=C/C(C)=C/C(=O)OC(C)C

Out:
1: 1.01; 2: 1.01; 3: 1; 4: 1.01; 5: 1; 6: 1.01

====

assay: chemical genetic growth profiling, strain panel (AID 1159580); conditions: S. cerevisiae deletion strains, growth OD, locus YJL166W, strain qcr8, active compounds read low
Screen size: about 5,500 compounds; about 2,000 (36%) were called active. About 18% were inconclusive and are not listed. Some of the results follow.
measurement kind: normalized growth
Numbers only.

Nc1ccc(S(=O)(=O)Nc2ccc(Cl)nn2)cc1	0.984
O=C1C=CC2=C3c4cc(O)c(O)cc4CC3(O)COC2=C1O (stereo unspecified)	0.995
C1CCN2CC3CC(CN4CCCCC34)C2C1 (stereo unspecified)	1.02
COc1cc2c(c(OC)c1OC)-c1ccc(OC)c(=O)cc1[C@@H](NC(C)=O)CC2	1.02
C1CCN2C[C@@H]3C[C@H](CN4CCCC[C@@H]34)[C@H]2C1	1.01

In: Consider the molecule CN1C(CC(=O)c2ccccc2)CCCC1CC(O)c1ccccc1 (stereo unspecified) and give its measured normalized growth.
Out: 0.984

====

experiment: chemical genetic growth profiling, strain panel (AID 1159580); conditions: S. cerevisiae deletion strains, growth OD, locus YLR039C, strain RIC1
Screen size: about 5,500 compounds; about 2,000 (36%) were called active. About 18% were inconclusive and are not listed. Rule as the data show it: active = normalized growth mostly below about 0.91 (no sharp cut-off); inconclusive = no clear call, values can overlap the other calls; inactive = mostly above about 0.92. The list shows a part of the results.
Form entry, call: pick from 1.0 (active), 0.0 (inactive)

Solved entries (count: 3):
COC(=O)Oc1ccccc1C(=O)O	0.0
O=[N+]([O-])c1ccc2nsnc2c1	0.0
O=C(COC(=O)c1ccccc1Nc1ccccc1)c1ccc(Cl)cc1	0.0

In: Short answer needed: outcome of this test for CNc1ccccc1C(=O)O ?
Out: 0.0

In: Same read-out for O=[N+]([O-])c1cc([As](=O)(O)O)ccc1O ?
Out: 0.0

In: Likewise for CSc1ccc(/C=C/[N+](=O)[O-])cc1 ?
Out: 1.0

In: Same read-out for O=S(=O)(N/N=C\c1ccc(Cl)cc1)c1ccc(-c2ccccn2)s1 ?
Out: 1.0

In: Follow-up item: C=CC(C1=CC(=O)C(OC)=CC1=O)c1ccc(O)cc1 (stereo not given)
Out: 0.0

In: Quick one: COC(=O)c1cc([N+](=O)[O-])ccc1NC(C)=O
Out: 0.0

In: Further, for O=C(N/N=C\c1cccs1)c1ccccc1CO ?
Out: 0.0

In: Next entry: CC(=O)Nc1cc([N+](=O)[O-])ccc1-n1cc(C)c(C(F)(F)F)n1
Out: 0.0

In: What do we get for CC(=O)Nc1ccc(S(=O)(=O)Nc2ccc([N+](=O)[O-])cc2)cc1 ?
Out: 0.0

====

experiment: chemical genetic growth profiling, strain panel (AID 1159580); conditions: S. cerevisiae deletion strains, growth OD, locus YKL085W, strain MDH1 (second series)
The whole screen tested about 5,500 compounds, of which about 2,000 (36%) were called active. Inconclusive results (about 18%) are left out. Rule as the data show it: active = normalized growth mostly below about 0.91 (no sharp cut-off); inconclusive = no clear call, values can overlap the other calls; inactive = mostly above about 0.92. This is one part of the list.
Returns: one label drawn from TRUE = active, FALSE = inactive

Please review the entries below; each comes with its answer.
CNC[C@@H](O)c1ccc(O)c(O)c1	FALSE
CCC[C@H]1CC2=C(C[C@@H](CC)CC3=C1C(=O)OC3=O)C(=O)OC2=O	FALSE
CCCC(C)C1(CC)C(=O)N=C(S)NC1=O (stereo unspecified)	TRUE
CC1(C)C(=O)C=CC2(C)C3CCC4(C)C(c5ccoc5)CC5OC54C3C(O)CC12 (stereo unspecified)	FALSE
Oc1c(Br)cc(Br)c2cccnc12	TRUE

In: Which outcome was assigned to Cc1occc(=O)c1O in this test?
Out: FALSE

====

Provide the recorded normalized growth for the entries that follow.
assay: chemical genetic growth profiling, strain panel (AID 1159580);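 note: tested at 20 µM; growth read once vehicle control cultures reached saturation at 30 °C; 1 = growth at the plate median or of vehicle wells; lower values mean less growth of the strain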; conditions: S. cerevisiae deletion strains, growth OD, locus YLR221C, strain rsa3, active compounds read low
The campaign covered roughly 5,500 compounds. About 2,000 (36%) were called active. Roughly 18% stayed inconclusive and do not appear here. Some of the results follow.
Answers are plain numbers.

Worked cases, normalized growth given:
O=C(NC(=O)c1c(F)cccc1F)Nc1ccc(Cl)cc1	0.994
CCN(CC)CCNC(=O)c1cc(S(C)(=O)=O)ccc1OC	0.948
CN(C)CCOc1ccc(/C(=C(/CCCl)c2ccccc2)c2ccccc2)cc1	0.0691
O[N+]1=CC=CCC1=S.On1ccccc1=S.[Zn]	0.0633
OC[C@@H](O)[C@@H](O[C@@H]1O[C@H](CO)[C@@H](O)[C@H](O)[C@H]1O)[C@H](O)[C@@H](O)CO	1.04

Below are 7 molecules. Give each one its normalized growth.
1. Nc1ccc(C(=O)NCC(=O)O)cc1
2. CCCCC(CC)CN1CN(CC(CC)CCCC)CC(C)(N)C1 (configuration not stated)
3. O=C(O)/C=C/C=C/c1ccccc1
4. CS(=O)(=O)CCCCN=C=S
5. CO[C@H]1/C=C/O[C@@]2(C)Oc3c(C)c(O)c4c(O)c(c5c(nc6cc(C)ccn65)c4c3C2=O)NC(=O)/C(C)=C\C=C\[C@H](C)[C@H](O)[C@@H](C)C(O)[C@@H](C)[C@H](OC(C)=O)[C@@H]1C (some centres not stated)
6. OC[C@@H]1CCCN2CCCC[C@H]12
7. CC(=O)Oc1ccc(Cl)c2cccnc12

Out:
1
0.0576
0.778
0.483
1.06
1.02
0.061

Fill in normalized growth for each of the 7 molecules listed.
1. O=C1CCCC2C3CC(CN12)[C@@H]1CCCCN1C3 (some centres not stated)
2. NCC(O)c1ccc(O)cc1 (configuration not stated)
3. CC1(C)C(=O)C=C[C@@]2(C)C1=C(O)C(=O)[C@]1(C)C2CC[C@@]2(C)[C@H](c3ccoc3)C[C@H]3O[C@]321 (some centres not stated)
4. C1CCN2CC3CC(CN4CCCCC34)C2C1 (configuration not stated)
5. Nc1ccc(S(=O)(=O)Nc2ccccn2)cc1
6. CC(=O)NCCCCCC(=O)O
7. CC/C(=C(\c1ccccc1)c1ccc(OCCN(C)C)cc1)c1ccccc1

Out:
0.981
1
0.759
1.01
0.993
1
0.121

# per-item lookup of normalized growth; items listed below
1. Cc1occc(=O)c1O
2. C=C(CC)C(=O)c1ccc(OCC(=O)O)c(Cl)c1Cl
3. O=C1O[C@H](C(O)CO)C(O)=C1O (some centres not stated)

Out:
[0.96, 1.04, 0.975]

====

assay: chemical genetic growth profiling, strain panel (AID 1159580);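 note: tested at 20 µM; growth read once vehicle control cultures reached saturation at 30 °C; 1 = growth at the plate median or of vehicle wells; lower values mean less growth of the strain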; details: S. cerevisiae deletion strains, growth OD, locus YLR371W, strain rom2, active compounds read low
Hit rate of the full screen: of about 5,500 compounds, about 2,000 (36%) were called active. Roughly 18% stayed inconclusive and do not appear here. Some of the results follow.
Kindly state normalized growth for each of the entries shown.

The examples below pair each entry with its known result.
C/C=C/c1ccc2c(c1)OCO2	1.01 (inactive)
COc1cc(OC)c2c(=O)c(-c3ccccc3)c(C)oc2c1OC	1 (inactive)
CC(C)(C)NCC(O)c1ccccc1Cl (stereo not given)	0.982 (inactive)
C=CC(C1=CC(=O)C(OC)=CC1=O)c1ccc(O)cc1 (stereo not given)	0.965 (inactive)

Now for the molecule whose normalized growth we want.
In: For CCCCC1=NC2(CCCC2)C(=O)N1Cc1ccc(-c2ccccc2-c2nn[nH]n2)cc1 , what is its reported normalized growth?
Out: 0.972 (inactive)

====

Kindly state normalized growth for each of the entries shown.
assay: chemical genetic growth profiling, strain panel (AID 1159580);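 note: tested at 20 µM; growth read once vehicle control cultures reached saturation at 30 °C; 1 = growth at the plate median or of vehicle wells; lower values mean less growth of the strain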; conditions: S. cerevisiae deletion strains, growth OD, locus YDR334W, strain swr1, active compounds read low
The campaign covered roughly 5,500 compounds. About 2,000 (36%) were called active. Inconclusive results (about 18%) are left out. This is one part of the list.
One number for each entry.

Consider the worked cases shown below.
NCC(O)c1ccc(O)cc1 (centres undefined)	1
CC(C)NCC(O)c1ccc(O)c(O)c1 (centres undefined)	0.982
C1CCN2C[C@@H]3C[C@H](CN4CCCC[C@@H]34)[C@H]2C1	1.01
Nc1ccc(S(=O)(=O)Nc2ccc(Cl)nn2)cc1	0.984

Dear reader, for each entry below, please note its normalized growth.
1. CNC[C@@H](O)c1ccc(O)c(O)c1
2. NC[C@H](O)c1ccc(O)c(O)c1
3. CCCC(C)C1(CC)C(=O)N=C(S)NC1=O (centres undefined)
4. Cc1ccsc1/C=C/C1=NCCCN1C
5. C=C(C)[C@H]1CC=C(C(=O)O)CC1

Out:
0.993
0.984
0.998
0.986
0.971
